biological target: PD-1/PD-L1 protein/protein interaction (recombinant human PD-L1 and human PD-1) (Homo sapiens (Human), UniProt Q9NZQ7); experiment: Homogeneous Time-Resolved Fluorescence (HTRF) PD-1/PD-L1 binding assay
Sequence (Q9NZQ7 19-238): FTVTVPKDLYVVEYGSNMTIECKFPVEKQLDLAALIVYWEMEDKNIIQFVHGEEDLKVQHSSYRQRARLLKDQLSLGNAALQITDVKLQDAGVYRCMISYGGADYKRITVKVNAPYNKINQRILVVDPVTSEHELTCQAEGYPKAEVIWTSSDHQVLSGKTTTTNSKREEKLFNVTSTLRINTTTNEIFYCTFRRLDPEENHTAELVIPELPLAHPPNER
Entries and their IC50 values follow.

Example cases with answers are listed next.
{"columns": ["Compound", "Assay value"],
 "data": [
  ["Cc1c(NC(=O)c2nc3c(n2C)CCN(CCO)C3)cccc1-c1cccc(NC(=O)c2nc3c(n2C)CCN(CCC24CCC(C(=O)O)(CC2)C4)C3)c1Cl [Example 33]", "≤ 5 nM"],
  ["Cc1c(NC(=O)c2nc3c(n2C)CCN(CCC24CCC(C(=O)O)(CC2)C4)C3)cccc1-c1cccc(NC(=O)c2nc3c(n2C)CCN(C)C3)c1Cl [Example 39]", "≤ 5 nM"],
  ["Cn1c(C(=O)Nc2cccc(-c3cccc(NC(=O)c4nc5c(n4C)CCN(CC46CCC(C(=O)O)(CC4)C6)C5)c3C#N)c2Cl)nc2c1CCN(CCC13CCC(C(=O)O)(CC1)C3)C2 [Example 52]", "≤ 5 nM"]
]}

### Prompt Name the recorded IC50 of the item CN1CCc2c(nc(C(=O)Nc3cccc(-c4cccc(NC(=O)c5nc6c(n5C)CCN(CCC57CCC(C(=O)O)(CC5)C7)C6)c4Cl)c3Cl)n2C)C1 [Example 3] in your answer.
### Response ≤ 5 nM

### Prompt Name the recorded IC50 of the item Cn1c(C(=O)Nc2cccc(-c3cccc(NC(=O)c4nc5c(n4C)CCN(C[C@@H](O)CO)C5)c3Cl)c2Cl)nc2c1CCN(CCC13CCC(C(=O)O)(CC1)C3)C2 [Example 11] in your answer.
### Response 5 to 10 nM
